Tested on: LOX IMVI melanoma
Assay: NCI tumour cell line growth inhibition, 48 h
TGI vs 20 µM: at or above is Satisfied, below is Not satisfied.

Example results:
COc1cccc(OC/C(N=Cc2cccnc2)=N/NC(=O)c2ccncc2)c1 :: Satisfied
O=S(=O)(N/N=C/c1ccc(/C=N/NS(=O)(=O)c2ccccc2)cc1)c1ccccc1 :: Satisfied
CC12CCC3[C@@H](CC3(C)C)C(O)(CCC1=O)C2 (stereo partly drawn) :: Satisfied
CCOC(=O)C(SCCO)C(C(=O)OCC)n1cnc2c(N)ncnc21 (stereo not drawn) :: Not satisfied
CO[C@@H]1/C=C\C=C(/C)C(=O)NC2=CC(=O)C(NCCN(C)C)=C(C[C@@H](C)C[C@@H](OC)[C@@H](O)[C@H](C)/C=C(\C)[C@H]1OC(N)=O)C2=O :: Not satisfied

# bool: TGI of COc1ccc([N+](=O)[O-])c2c(NCCCN(C)C)c3ccccc3nc12 >= 20 µM
Not satisfied

Can you check O=c1[nH]c(C23CC4CC(CC(C4)C2)C3)cc2c1c(=O)oc1ccccc12 next?
Not satisfied
